Entry source: ChEMBL document CHEMBL1130406

measured_on: UniProt:P08473
Sequence (P08473 whole entry): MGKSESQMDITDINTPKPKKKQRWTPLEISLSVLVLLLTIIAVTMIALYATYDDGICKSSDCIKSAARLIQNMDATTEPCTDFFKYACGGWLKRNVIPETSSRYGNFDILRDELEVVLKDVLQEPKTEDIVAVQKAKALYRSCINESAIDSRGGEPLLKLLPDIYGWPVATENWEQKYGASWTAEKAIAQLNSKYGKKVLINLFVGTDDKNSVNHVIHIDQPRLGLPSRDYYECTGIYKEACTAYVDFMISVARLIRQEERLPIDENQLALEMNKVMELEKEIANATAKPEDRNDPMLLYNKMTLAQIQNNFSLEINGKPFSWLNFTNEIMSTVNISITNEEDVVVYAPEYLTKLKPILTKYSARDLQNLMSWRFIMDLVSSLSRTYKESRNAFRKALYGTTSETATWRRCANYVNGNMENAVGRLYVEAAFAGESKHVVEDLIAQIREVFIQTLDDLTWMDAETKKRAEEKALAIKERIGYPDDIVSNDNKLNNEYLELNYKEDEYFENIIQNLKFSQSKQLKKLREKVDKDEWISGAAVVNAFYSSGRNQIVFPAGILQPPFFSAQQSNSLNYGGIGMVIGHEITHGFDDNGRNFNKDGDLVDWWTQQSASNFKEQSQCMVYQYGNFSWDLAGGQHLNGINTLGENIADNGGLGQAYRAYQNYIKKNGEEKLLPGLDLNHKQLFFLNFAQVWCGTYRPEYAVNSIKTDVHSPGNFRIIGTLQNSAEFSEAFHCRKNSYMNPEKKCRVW
experiment_description: Inhibition of neutral endopeptidase
pIC50: −log10 of the molar value.
value_type: pIC50

So for "O=C1N[C@H](C(=O)O)CCCCc2ccccc2C[C@H]1CS" , the logged pIC50 turned out to be 8.15

I = O=C1N[C@H](C(=O)O)Cc2ccccc2CCCCCCC[C@@H]1CS
II = O=C1N[C@@H](C(=O)O)Cc2ccccc2CCCCC[C@@H]1CS
Ask | Please let me know which one, I or II , has a lower measured pIC50 value. Refer to your chosen entry by its label in the reply.
Reply | I
